B1: PTPRD (parent)
chain: MVHVARLLLLLLTFFLRTDAETPP

Variants of: B1
test details: protein stability index of a GFP-peptide fusion (GPS, HEK-293T) (PSI 1-6); higher = more stable;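 also: lentivirally expressed fusions sorted by FACS into six bins by GFP to DsRed ratio, PSI derived from sequencing read proportions per bin multiplied by bin number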
assay context: c terminus: a fixed tail appended
Label Condition not met if protein stability index falls below 3; label Condition met in every other case.

Recorded results for 3 variants are shown here.
[
  {
    "sequence": "LVHVARLLLLLLTFFLRTDAETPP",
    "category": "Condition not met"
  },
  {
    "sequence": "MVHVARLLLLLLTFFLRTDAETPT",
    "category": "Condition met"
  },
  {
    "sequence": "MVHVARLLLLLSTFFLRTDAETPP",
    "category": "Condition not met"
  }
]

Data request: Does protein stability index meet or surpass 3 for `MVHVARLLLLLLTFFLRTDAETPC` ?
Data returned: Condition met

Data request: Does protein stability index meet or surpass 3 for `MVHVARLLLLLLTMFLRTDAETPP` ?
Data returned: Condition met

Data request: Does protein stability index meet or surpass 3 for `MVHVARLLLILLTFFLRTDAETPP` ?
Data returned: Condition met

Source: the supplement of paper PMC10567573
